system: MS2 coat protein; assay: apparent KD of MS2 coat protein; designed switch direction (-1 OFF switch, 1 ON switch): -1; higher = weaker reporter binding; details: Eterna round: R95; input ligand: FMN 200 uM
Answer False if apparent KD of MS2 coat protein is under 100 nM, and True if it is 100 nM or more.

[
  {
    "querySequence": "ACAAGCUUUUUGUUCGUCUUAUACACUCCUAAGAGGACAACAUGAGGAUCACCCAUGUAACAAAGACGGACUCAUGU [Sesor Array 11 - Jieux - Sensor v3, turn-off variant 2] (puzzle: Sensor v3, turn-off variant 2)",
    "group": "False"
  },
  {
    "querySequence": "AGUACUGACACGUUGGUGUUAGUACAAUAAGCUUGUGUUACAUGAGGAUCACCCAUGUCCUCAUAAGCUCGUCUUAU [salish99_TOv2_r2_095] (puzzle: Sensor v3, turn-off variant 2)",
    "group": "True"
  },
  {
    "querySequence": "GUAAUUAUAUAGGAUAUCGAAUUUAUUAUUUAACGAGAAGGAUGAACAUGAGGAUCACCCAUGUGGUAUCAUGG [JL-ex6-3.04] (puzzle: Exclusion 6)",
    "group": "True"
  },
  {
    "querySequence": "CGUGUCUUUCACGUGAGUGGUGGGUGCAACAGGUGGGAAACAUGAGGAUCACCCAUGUCCUCACUUGCUCGUCUUUU [Grok-var2-03] (puzzle: Sensor v3, turn-off variant 2)",
    "group": "False"
  },
  {
    "querySequence": "AACAAUAAGGAGGAUAUCGUAUCGGAAACGAUACGAGAAGGCUUAACAUGAGGAUCACCCAUGUUCUUCAAUAA [Fiskers Ex 6 - 24] (puzzle: Exclusion 6)",
    "group": "False"
  }
]

====

test system: K4 kissing-loop RNA reporter; assay: apparent KD of K4 kissing-loop reporter; higher = weaker reporter binding; settings: Eterna round: R107; input ligand: tryptophan 2.4 mM;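 further: bound reporter read as fluorescence of individual clusters on recovered sequencing chips by microscopy, with normalized cluster intensities fitted with a binding model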
measurementLabel: apparent KD of K4 kissing-loop reporter (nM)

[
  {
    "querySequence": "AUUUUAUUAACUGAUACCAGACUUAAUGAAUUGUAAAUUACUAGUGAUGUUAGUGAUUCUGUCCCUUGGCAGCAGUAUUUAUUAA [JR_ExcTheophyB_Sub012]",
    "experimentalTarget": "K4 kissing-loop RNA reporter",
    "measurementLabel": "apparent KD of K4 kissing-loop reporter",
    "uom": "nM",
    "reported": 118
  },
  {
    "querySequence": "CACGAUGAAUUCUCUAGGAGUGAUGUUUUUCGAGGACCGGUACGGCCGCCACUCGGACGACGAGCGUGGUAGCGGCGUGAAGACU [zamullin]",
    "experimentalTarget": "K4 kissing-loop RNA reporter",
    "measurementLabel": "apparent KD of K4 kissing-loop reporter",
    "uom": "nM",
    "reported": 452
  },
  {
    "querySequence": "ACCCUGGGUCCCGAAAGGGACCCAGGGAGUGAGGAUAUGUGGAAACACAGAAGGCACAGCACAGUGAUGUUGUGCGACGAAAGUC [#02 K4 FMN A Same State]",
    "experimentalTarget": "K4 kissing-loop RNA reporter",
    "measurementLabel": "apparent KD of K4 kissing-loop reporter",
    "uom": "nM",
    "reported": 217
  },
  {
    "querySequence": "UAUGUACGCGGGUAACGGUACAUCGAGGAAGGAGCGUGCGCAGGCACAGGUAGGUCGCCUCAGCGCACGAGUGAUGUUCGUGGGC [Rere]",
    "experimentalTarget": "K4 kissing-loop RNA reporter",
    "measurementLabel": "apparent KD of K4 kissing-loop reporter",
    "uom": "nM",
    "reported": 280
  },
  {
    "querySequence": "UGUCAUGGAAACAUGAACGUUAAAAUAAAUCGAGGACCGGUACGGCCGCCACUCGUAUAGCGGUCAGUGAUGUUGACUGUAAUAA [KL-SSTryp-A form2 sub10]",
    "experimentalTarget": "K4 kissing-loop RNA reporter",
    "measurementLabel": "apparent KD of K4 kissing-loop reporter",
    "uom": "nM",
    "reported": 94.3
  },
  {
    "querySequence": "UAAGAUAUAAGGGAUACCAGCCAUAAGGAAAGUGUGAUGAGUGAUGUUCUGACAAGCCAAGGCCCUUGGCAGCUUUAAUAGCAUC [Theophylline B Same State; Euphoria Solution]",
    "experimentalTarget": "K4 kissing-loop RNA reporter",
    "measurementLabel": "apparent KD of K4 kissing-loop reporter",
    "uom": "nM",
    "reported": 235
  },
  {
    "querySequence": "UCAUAUACCAGAAGGAGCGUGCAGGACGAAUUAAUCAUCGACCUUAGUGAUGUUAAGGACGCACAGGUAGGUCGCUGGUAUAUGA [Arg B SS t4]",
    "experimentalTarget": "K4 kissing-loop RNA reporter",
    "measurementLabel": "apparent KD of K4 kissing-loop reporter",
    "uom": "nM",
    "reported": 439
  },
  {
    "querySequence": "AGUACGGCAAACUUGCAACAAGCCGUACCACGAGGACCGGUACGGCCGCCACUCGAUAACUUGCAGUGAUGUUGCAAGUAAGAAU [(T)''-(K)'-(T)'-(T1)-(T2)-(K1)-(K2)_Design5]",
    "experimentalTarget": "K4 kissing-loop RNA reporter",
    "measurementLabel": "apparent KD of K4 kissing-loop reporter",
    "uom": "nM",
    "reported": 209
  },
  {
    "querySequence": "UAAUUGCAGUGAUGUUGCAAAUGUCCUGACUAGGAUAUCAGGAAACUGAGAAGGAGUCCCUUCUAUUGCAACAAGAAGGAGGAUA [KL-SSFMN-A14]",
    "experimentalTarget": "K4 kissing-loop RNA reporter",
    "measurementLabel": "apparent KD of K4 kissing-loop reporter",
    "uom": "nM",
    "reported": 287
  },
  {
    "querySequence": "GGGAGGAGUGGUGUUGAUUAAGAAGCGGAAGGAGCGCCGAAGAAGGCAGGUAGGUCGCCGAAAUAUAGUGAUGUUAUAUAAAGGG [ExArg.C]",
    "experimentalTarget": "K4 kissing-loop RNA reporter",
    "measurementLabel": "apparent KD of K4 kissing-loop reporter",
    "uom": "nM",
    "reported": 208
  },
  {
    "querySequence": "UAGUCAUACAGAGGAUAUCGUAUGAGUGAUGUUCAAGUGCGUACAUCAACUUGAUGUACAGAUAGACGAGAAGGCUGUAUGACUA [FMB B SS t6]",
    "experimentalTarget": "K4 kissing-loop RNA reporter",
    "measurementLabel": "apparent KD of K4 kissing-loop reporter",
    "uom": "nM",
    "reported": 492
  },
  {
    "querySequence": "UUUCGUAGAAGUGAUACCAGACUGGAAAGUGAUGUUUUCCAAUUAUUUAAAUCCUUAUCUGUCCCUUGGCAGCACAGUUUAUUUA [JR_Nu_ExcTheophyB_Sub027]",
    "experimentalTarget": "K4 kissing-loop RNA reporter",
    "measurementLabel": "apparent KD of K4 kissing-loop reporter",
    "uom": "nM",
    "reported": 70
  }
]
